All figures here come from patent US12427212B2.

Biological target: Nectin-4 (Homo sapiens, UniProt Q96NY8)
Sequence (Q96NY8 32-510): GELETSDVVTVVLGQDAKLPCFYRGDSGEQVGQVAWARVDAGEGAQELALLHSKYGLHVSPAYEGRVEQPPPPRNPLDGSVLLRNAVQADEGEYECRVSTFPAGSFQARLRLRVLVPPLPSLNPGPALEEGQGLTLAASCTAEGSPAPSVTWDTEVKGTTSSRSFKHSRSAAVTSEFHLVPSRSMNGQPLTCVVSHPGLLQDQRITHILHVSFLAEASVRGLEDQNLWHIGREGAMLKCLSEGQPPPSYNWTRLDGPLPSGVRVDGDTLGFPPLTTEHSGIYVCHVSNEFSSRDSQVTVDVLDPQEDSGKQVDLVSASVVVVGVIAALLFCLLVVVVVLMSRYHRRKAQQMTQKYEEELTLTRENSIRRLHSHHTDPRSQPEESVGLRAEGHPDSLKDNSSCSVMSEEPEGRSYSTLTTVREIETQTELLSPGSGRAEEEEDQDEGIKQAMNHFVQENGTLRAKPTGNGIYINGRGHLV
Experiment: DELFIA competitive binding assay (Ki) against Eu-labeled C307 on HT-1376 cells
Bridges are numbered along the chain shown (N, C = ends). [ ]: non-standard residue; d: D form. The star is where a group is joined. Biotin = O=C1N[C@H]2[C@H](CS[C@H]2CCCCC(=O)*)N1; Lys(Me3) = C[N+](C)(C)CCCC[C@H](N)C(=O)O; Arg(Me2s) = CN=C(NC)NCCC[C@H](N)C(=O)O; PEG4 = NCCOCCOCCOCCOCCC(=O)O
pKi values for the substances below.
Entry type: numeric. Quantity: pKi, the -log10 of concentration in molar units.

substance | assay.system | experimental.readout | measured.result
{Biotin-PEG4}-CDYDEQFFTALKRLRGGDICEYIQA[Lys(Me3)]FQYLPGECIEEILDNLGCS-OH (disulfide 1-34, 20-44) [Compound C255] | Nectin-4 (Homo sapiens, UniProt Q96NY8) | pKi | 9.18
{Biotin-PEG4}-CEYDEEFFTALARLRGADICQYIQA[Lys(Me3)]FQYLPALCIEEILDNLGCS-OH (disulfide 1-34, 20-44) [Compound C252] | Nectin-4 (Homo sapiens, UniProt Q96NY8) | pKi | 9.12
{Biotin-PEG4}-CEYDEQFFTALARLRGADICEYIQARFQYLPGLCIEEILDNLGCS-OH (disulfide 1-34, 20-44) [Compound C280] | Nectin-4 (Homo sapiens, UniProt Q96NY8) | pKi | 9.27

With those in mind, consider the next substance.
IN: Output measured pKi for this item: {Biotin-PEG4}-CEYDEQFFTALARLRGGDICEYIQA[Arg(Me2s)]FQYLPGLCIEEILDNLGCS-OH (disulfide 1-34, 20-44) [Compound C267]
OUT: 9.12
